Source: ChEMBL document CHEMBL3611975

assay: Cytotoxicity against African green monkey Vero cells assessed as cell viability after 72 hrs by MTT assay; format: cell-based; settings: chlorocebus sabaeus, read-out: CTD50
Rule: CC50 at 72 h below 200 µM gives Condition met, anything at or above gives Condition not met.

- chemical structure: "CCN(CC)c1ncnc2c1ncn2[C@H]1C[C@H]2[C@H](CO)[C@@H]1C[C@@H]2Cl"
  group label: "Condition met"
- chemical structure: "OC[C@@H]1[C@@H]2C[C@H](Cl)[C@H]1C[C@@H]2Nc1ncnc2c1ncn2[C@H]1C[C@H]2[C@H](CO)[C@@H]1C[C@@H]2Cl"
  group label: "Condition not met"
- chemical structure: "Nc1ncnc2c1ncn2[C@H]1C[C@H]2[C@H](CO)[C@@H]1C[C@@H]2Cl"
  group label: "Condition not met"
- chemical structure: "CN1CCN(c2ncnc3c2ncn3[C@H]2C[C@H]3[C@H](CO)[C@@H]2C[C@@H]3Cl)CC1"
  group label: "Condition not met"
- chemical structure: "CN1CCN(Nc2ncnc3c2ncn3[C@H]2C[C@H]3[C@H](CO)[C@@H]2C[C@@H]3Cl)CC1"
  group label: "Condition not met"
- chemical structure: "OC[C@H]1[C@@H]2C[C@H](n3cnc4c(NC5CC5)ncnc43)[C@H]1C[C@@H]2Cl"
  group label: "Condition not met"

###

experiment: Cytotoxicity against MDCK cells assessed as cell viability after 48 hrs by MTT assay; format: cell-based, Canis lupus familiaris; conditions: dog, read-out: CTD50

- chemical structure: "COc1ccc(CCNc2ncnc3c2ncn3[C@H]2C[C@H]3[C@H](CO)[C@@H]2C[C@@H]3Cl)cc1"
  relation sign: "="
  CC50 at 48 h / µM: 350
- chemical structure: "O=c1ccn([C@H]2C[C@H]3[C@H](CO)[C@@H]2C[C@@H]3Cl)c(=O)[nH]1"
  relation sign: ">"
  CC50 at 48 h / µM: 1210
- chemical structure: "OC[C@@H](Cc1ccccc1)Nc1ncnc2c1ncn2[C@H]1C[C@H]2[C@H](CO)[C@@H]1C[C@@H]2Cl"
  relation sign: "="
  CC50 at 48 h / µM: 410
- chemical structure: "OC[C@H]1[C@@H]2C[C@H](n3cnc4c(NCc5cccnc5)ncnc43)[C@H]1C[C@@H]2Cl"
  relation sign: "="
  CC50 at 48 h / µM: 554
- chemical structure: "CN(C)c1ncnc2c1ncn2[C@H]1C[C@H]2[C@H](CO)[C@@H]1C[C@@H]2Cl"
  relation sign: "="
  CC50 at 48 h / µM: 929
- chemical structure: "OC[C@H]1[C@@H]2C[C@H](n3cnc4c(NCCc5ccc(O)cc5)ncnc43)[C@H]1C[C@@H]2Cl"
  relation sign: ">"
  CC50 at 48 h / µM: 795
- chemical structure: "OC[C@H]1[C@@H]2C[C@H](n3cnc4c(NCCc5ccccc5)ncnc43)[C@H]1C[C@@H]2Cl"
  relation sign: "="
  CC50 at 48 h / µM: 143
- chemical structure: "Cc1cn([C@H]2C[C@H]3[C@H](CO)[C@@H]2C[C@@H]3Cl)c(=O)[nH]c1=O"
  relation sign: ">"
  CC50 at 48 h / µM: 1160

###

experiment: Cytotoxicity against MDCK cells assessed as cell viability after 48 hrs by MTT assay; assay type: cell-based, Canis lupus familiaris; details: dog, read-out: CTD50
observed property: CC50 at 48 h

- chemical structure: "OC[C@@H]1[C@@H]2C[C@H](Cl)[C@H]1C[C@@H]2Nc1ncnc2c1ncn2[C@H]1C[C@H]2[C@H](CO)[C@@H]1C[C@@H]2Cl"
  value: "> 704 µM"
- chemical structure: "Nc1ncnc2c1ncn2[C@H]1C[C@H]2[C@H](CO)[C@@H]1C[C@@H]2Cl"
  value: "> 1120 µM"
- chemical structure: "CCOc1ncnc2c1ncn2[C@H]1C[C@H]2[C@H](CO)[C@@H]1C[C@@H]2Cl"
  value: "> 1020 µM"

###

Attribute: selectivity ratio
experiment: Selectivity index, ratio of CTD50 for MDCK cells to EC50 for Influenza A virus (A/Puerto Rico/8/1934(H1N1)); format: toxicity, cell-based; conditions: dog

- chemical structure: "COc1ccc(CCNc2ncnc3c2ncn3[C@H]2C[C@H]3[C@H](CO)[C@@H]2C[C@@H]3Cl)cc1"
  selectivity ratio: 22
- chemical structure: "OC[C@H]1[C@@H]2C[C@H](n3cnc4c(NC5CCCCC5)ncnc43)[C@H]1C[C@@H]2Cl"
  selectivity ratio: 6
- chemical structure: "CN1CCN(Nc2ncnc3c2ncn3[C@H]2C[C@H]3[C@H](CO)[C@@H]2C[C@@H]3Cl)CC1"
  selectivity ratio: 73
- chemical structure: "O=c1ccn([C@H]2C[C@H]3[C@H](CO)[C@@H]2C[C@@H]3Cl)c(=O)[nH]1"
  selectivity ratio: "> 19"
- chemical structure: "Cc1cn([C@H]2C[C@H]3[C@H](CO)[C@@H]2C[C@@H]3Cl)c(=O)[nH]c1=O"
  selectivity ratio: "> 3"
- chemical structure: "OC[C@H]1[C@@H]2C[C@H](n3cnc4c(NCCc5ccccc5)ncnc43)[C@H]1C[C@@H]2Cl"
  selectivity ratio: 10
- chemical structure: "CCOc1ncnc2c1ncn2[C@H]1C[C@H]2[C@H](CO)[C@@H]1C[C@@H]2Cl"
  selectivity ratio: "> 5"
- chemical structure: "CN(C)c1ncnc2c1ncn2[C@H]1C[C@H]2[C@H](CO)[C@@H]1C[C@@H]2Cl"
  selectivity ratio: 8
- chemical structure: "OC[C@H]1[C@@H]2C[C@H](n3cnc4c(NCCc5ccc(O)cc5)ncnc43)[C@H]1C[C@@H]2Cl"
  selectivity ratio: "> 16"
- chemical structure: "OC[C@H]1[C@@H]2C[C@H](n3cnc4c(N5CCOCC5)ncnc43)[C@H]1C[C@@H]2Cl"
  selectivity ratio: 54
- chemical structure: "CCN(CC)c1ncnc2c1ncn2[C@H]1C[C@H]2[C@H](CO)[C@@H]1C[C@@H]2Cl"
  selectivity ratio: 18
- chemical structure: "OC[C@H]1[C@@H]2C[C@H](n3cnc4c(NCc5ccncc5)ncnc43)[C@H]1C[C@@H]2Cl"
  selectivity ratio: 3
- chemical structure: "OC[C@H]1[C@@H]2C[C@H](n3cnc4c(NCc5cccnc5)ncnc43)[C@H]1C[C@@H]2Cl"
  selectivity ratio: 5
- chemical structure: "CCN(CC)CCNc1ncnc2c1ncn2[C@H]1C[C@H]2[C@H](CO)[C@@H]1C[C@@H]2Cl"
  selectivity ratio: 36
- chemical structure: "Nc1ncnc2c1ncn2[C@H]1C[C@H]2[C@H](CO)[C@@H]1C[C@@H]2Cl"
  selectivity ratio: "> 150"
- chemical structure: "OC[C@@H]1[C@@H]2C[C@H](Cl)[C@H]1C[C@@H]2Nc1ncnc2c1ncn2[C@H]1C[C@H]2[C@H](CO)[C@@H]1C[C@@H]2Cl"
  selectivity ratio: "> 73"
- chemical structure: "OC[C@H]1[C@@H]2C[C@H](n3cnc4c(NC5CCCC5)ncnc43)[C@H]1C[C@@H]2Cl"
  selectivity ratio: 36
- chemical structure: "OC[C@H]1[C@@H]2C[C@H](n3cnc4c(NC5CC5)ncnc43)[C@H]1C[C@@H]2Cl"
  selectivity ratio: 151
- chemical structure: "CN1CCN(c2ncnc3c2ncn3[C@H]2C[C@H]3[C@H](CO)[C@@H]2C[C@@H]3Cl)CC1"
  selectivity ratio: 39
- chemical structure: "OC[C@@H](Cc1ccccc1)Nc1ncnc2c1ncn2[C@H]1C[C@H]2[C@H](CO)[C@@H]1C[C@@H]2Cl"
  selectivity ratio: 3

###

tested on: Coxsackievirus B4; test: Antiviral activity against Human coxsackievirus B4 Powers infected in African green monkey Vero cells assessed as decrease in virus titer after 72 hrs by MTT assay; type: functional, organism-based; settings: Enterovirus B
Attribute: EC50
observed property: EC50

- chemical structure: "OC[C@H]1[C@@H]2C[C@H](n3cnc4c(NCCc5ccc(O)cc5)ncnc43)[C@H]1C[C@@H]2Cl"
  value: "18 µM"
- chemical structure: "CN1CCN(c2ncnc3c2ncn3[C@H]2C[C@H]3[C@H](CO)[C@@H]2C[C@@H]3Cl)CC1"
  value: "> 87 µM"
- chemical structure: "Cc1cn([C@H]2C[C@H]3[C@H](CO)[C@@H]2C[C@@H]3Cl)c(=O)[nH]c1=O"
  value: "> 352 µM"
- chemical structure: "OC[C@H]1[C@@H]2C[C@H](n3cnc4c(NCCc5ccccc5)ncnc43)[C@H]1C[C@@H]2Cl"
  value: "4 µM"
- chemical structure: "OC[C@H]1[C@@H]2C[C@H](n3cnc4c(NC5CC5)ncnc43)[C@H]1C[C@@H]2Cl"
  value: "17 µM"
- chemical structure: "OC[C@H]1[C@@H]2C[C@H](n3cnc4c(NC5CCCC5)ncnc43)[C@H]1C[C@@H]2Cl"
  value: "> 30 µM"
- chemical structure: "Nc1ncnc2c1ncn2[C@H]1C[C@H]2[C@H](CO)[C@@H]1C[C@@H]2Cl"
  value: "> 112 µM"
- chemical structure: "CCN(CC)CCNc1ncnc2c1ncn2[C@H]1C[C@H]2[C@H](CO)[C@@H]1C[C@@H]2Cl"
  value: "> 84 µM"
- chemical structure: "OC[C@H]1[C@@H]2C[C@H](n3cnc4c(N5CCOCC5)ncnc43)[C@H]1C[C@@H]2Cl"
  value: "> 90 µM"
- chemical structure: "CCN(CC)c1ncnc2c1ncn2[C@H]1C[C@H]2[C@H](CO)[C@@H]1C[C@@H]2Cl"
  value: "> 94 µM"
- chemical structure: "OC[C@H]1[C@@H]2C[C@H](n3cnc4c(NCc5ccncc5)ncnc43)[C@H]1C[C@@H]2Cl"
  value: "> 84 µM"
- chemical structure: "O=c1ccn([C@H]2C[C@H]3[C@H](CO)[C@@H]2C[C@@H]3Cl)c(=O)[nH]1"
  value: "> 367 µM"
- chemical structure: "CN(C)c1ncnc2c1ncn2[C@H]1C[C@H]2[C@H](CO)[C@@H]1C[C@@H]2Cl"
  value: "28 µM"
- chemical structure: "OC[C@@H](Cc1ccccc1)Nc1ncnc2c1ncn2[C@H]1C[C@H]2[C@H](CO)[C@@H]1C[C@@H]2Cl"
  value: "1 µM"
- chemical structure: "CCN(CC)CCCNc1ncnc2c1ncn2[C@H]1C[C@H]2[C@H](CO)[C@@H]1C[C@@H]2Cl"
  value: "> 81 µM"
